# study_target: Cyclin-dependent kinase 2 (Homo sapiens, UniProt P24941)
# run_description: Inhibition of human recombinant CDK2/cyclin A

>  <molecule>
COc1cc(C2=C(c3cn(C)c4ccccc34)C(=O)NC2)cc(OC)c1OC

>  <IC50 [µM]>
42

$$$$
>  <molecule>
COc1cc(C2=C(c3cn(COC(C)(C)C)c4ccccc34)CNC2=O)cc(OC)c1OC

>  <IC50 [µM]>
23

$$$$
>  <molecule>
COc1cc(C2=C(c3cn(COc4ccccc4)c4ccccc34)CNC2=O)cc(OC)c1OC

>  <IC50 [µM]>
20

$$$$

----------
# study_target: Serine/threonine-protein kinase B-raf (Homo sapiens, UniProt P15056, V600E)
# Sequence (P15056 2-766 V600E limits assumed): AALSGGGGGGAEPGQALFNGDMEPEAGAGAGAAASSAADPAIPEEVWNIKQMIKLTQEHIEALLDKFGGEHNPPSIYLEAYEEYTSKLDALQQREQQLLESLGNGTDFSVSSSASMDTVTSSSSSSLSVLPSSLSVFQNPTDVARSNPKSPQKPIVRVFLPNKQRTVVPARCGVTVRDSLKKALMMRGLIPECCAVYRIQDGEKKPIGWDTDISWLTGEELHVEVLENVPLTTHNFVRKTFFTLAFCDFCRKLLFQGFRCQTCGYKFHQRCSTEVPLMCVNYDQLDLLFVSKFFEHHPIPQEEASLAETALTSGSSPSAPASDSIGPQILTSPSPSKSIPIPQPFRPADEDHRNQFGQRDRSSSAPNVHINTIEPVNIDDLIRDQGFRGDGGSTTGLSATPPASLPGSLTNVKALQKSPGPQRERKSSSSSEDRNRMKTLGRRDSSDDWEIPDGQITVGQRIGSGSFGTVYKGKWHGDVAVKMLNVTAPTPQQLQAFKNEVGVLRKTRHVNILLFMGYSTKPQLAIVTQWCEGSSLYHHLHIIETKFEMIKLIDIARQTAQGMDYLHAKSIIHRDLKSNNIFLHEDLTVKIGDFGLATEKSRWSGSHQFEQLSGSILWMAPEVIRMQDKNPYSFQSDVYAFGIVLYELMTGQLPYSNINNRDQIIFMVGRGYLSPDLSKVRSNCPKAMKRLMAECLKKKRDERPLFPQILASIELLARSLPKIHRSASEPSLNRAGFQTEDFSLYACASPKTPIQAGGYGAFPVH
# run_description: Inhibition of human recombinant B-Raf-V600E mutant
experimental_readout: IC50 (µM)

>  <molecule>
COc1cc(C2=C(c3cn(COC(C)(C)C)c4ccccc34)CNC2=O)cc(OC)c1OC

>  <experimental_readout>
IC50

>  <observed>
38

$$$$
>  <molecule>
COc1cc(C2=C(c3cn(C)c4ccccc34)C(=O)NC2)cc(OC)c1OC

>  <experimental_readout>
IC50

>  <observed>
50

$$$$
